Origin of the recorded values: paper PMC4537050

# MEASUREMENT TARGET: T1, FGF22 (UniProt Q9HCT0 23-170)
# T1 construct: fibroblast growth factor 22 (FGF22)
# T1 sequence (looked up): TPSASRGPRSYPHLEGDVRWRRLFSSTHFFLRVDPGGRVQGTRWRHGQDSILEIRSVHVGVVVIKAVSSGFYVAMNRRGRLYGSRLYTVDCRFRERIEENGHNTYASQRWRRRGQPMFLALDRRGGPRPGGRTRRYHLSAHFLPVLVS
# MEASUREMENT PROTOCOL: SPR; BIAcore X-100; FGF8b (20 μg/ml in 10 mM sodium acetate, pH 6.0) or other FGFs (10 mM sodium acetate at optimal pH) immobilised on a CM5 sensor chip by EDC/NHS; peptide injected (ARPCA 8 μM to 2000 μM), 4 min at 30 μl/min, 10 min dissociation, in HBS; equilibrium values fitted with the Langmuir equation for monovalent binding
# STUDY CONDITIONS: both partners purified
PROPERTY MEASURED: Kd (µM)
State just the number; it will be interpreted in µM.

Return the recorded Kd value; entry: Ac-ARPCA-NH2 (long pentraxin-3 (PTX3), residues 100-104 of the N-terminal extension; source: synthetic peptide, provided by R. Longhi and A. Gori (CNR, Milano, Italy)) [Ac-ARPCA-NH2, acetylated pentapeptide corresponding to PTX3(100-104)]
129
